Where these numbers come from: patent US20210024507A1

- targetEntity: human CTPS1 (Homo sapiens)
- Construct: purchased Proteros biostructures GmbH
- Sequence (P17812 whole entry): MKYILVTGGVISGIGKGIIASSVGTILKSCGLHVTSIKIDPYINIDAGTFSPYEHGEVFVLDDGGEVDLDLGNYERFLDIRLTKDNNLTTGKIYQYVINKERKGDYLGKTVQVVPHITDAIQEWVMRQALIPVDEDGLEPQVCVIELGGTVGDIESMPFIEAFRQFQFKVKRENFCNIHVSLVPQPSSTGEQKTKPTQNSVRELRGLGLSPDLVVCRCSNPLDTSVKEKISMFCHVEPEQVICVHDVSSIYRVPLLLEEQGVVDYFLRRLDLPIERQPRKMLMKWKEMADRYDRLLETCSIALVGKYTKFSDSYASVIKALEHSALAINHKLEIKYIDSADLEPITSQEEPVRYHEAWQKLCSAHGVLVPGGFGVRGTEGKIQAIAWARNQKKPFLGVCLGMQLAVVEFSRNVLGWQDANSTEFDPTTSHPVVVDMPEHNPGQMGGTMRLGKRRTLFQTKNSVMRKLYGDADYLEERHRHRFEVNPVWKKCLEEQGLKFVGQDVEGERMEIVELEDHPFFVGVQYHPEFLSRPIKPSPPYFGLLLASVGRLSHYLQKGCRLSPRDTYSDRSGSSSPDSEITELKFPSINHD
- measurementNotes: Human CTPS1 enzyme inhibition (ADP-Glo Max assay)
- Format: biochemical
- conditionSet: human full length CTPS1, 25° C., read-out: CTPS1 (Human CTPS1 Enzyme Inhibition, IC50 grouped by potency range)
# IC50 annotations

Past entries and their recorded results:
| molecule | endpointResult |
| --- | --- |
| CCC(NC(=O)c1ccc(-c2cncc(C(F)(F)F)c2)cc1F)c1ccnc(NS(=O)(=O)C2CC2)n1 (centres unmarked) | 100 to 1000 nM |
| CCC(C(=O)Nc1ccc(-c2cccnc2)cn1)c1ccnc(NS(=O)(=O)C2CC2)n1 (centres unmarked) | 1000 to 10000 nM |
| CCC(C(=O)Nc1ccc(-c2cncc(OCC(F)(F)F)n2)cc1F)c1ccnc(NS(=O)(=O)C2CC2)n1 (centres unmarked) | ≤ 100 nM |
| CCOc1cncc(-c2ccc(C(=O)NC(CC)c3ccnc(NS(=O)(=O)C4CC4)n3)c(C(F)(F)F)c2)n1 (centres unmarked) | 100 to 1000 nM |

# context switch: different molecule, same IC50
Q: Annotate the molecule CCOc1cncc(-c2ccc(NC(=O)C(F)(CC)c3cncc(NS(=O)(=O)C4CC4)n3)nc2)n1 (single isomer, unassigned) [P206] with its measured IC50.
Result: ≤ 100 nM
